The measured values listed here are drawn from paper PMC4677459.

Assay: Plasma and tumour concentrations in SW620 xenograft mice
Assay type: in vivo
Details: female, NCr athymic, mouse, tumour, po, 70 mg/kg
RECORDED METRIC: concentration at 6 h (nM)
Reply numerically in nM, unit not repeated.

input: I'd like to know its concentration at 6 h. The compound in question is "Cn1cc(-c2ccc(-c3cncc(Cl)c3N3CCC4(CCNC4=O)CC3)cc2)cn1"
output: 639

----------
Target: CDK8/cyclin C (Homo sapiens)
Sequence (P49336 whole entry): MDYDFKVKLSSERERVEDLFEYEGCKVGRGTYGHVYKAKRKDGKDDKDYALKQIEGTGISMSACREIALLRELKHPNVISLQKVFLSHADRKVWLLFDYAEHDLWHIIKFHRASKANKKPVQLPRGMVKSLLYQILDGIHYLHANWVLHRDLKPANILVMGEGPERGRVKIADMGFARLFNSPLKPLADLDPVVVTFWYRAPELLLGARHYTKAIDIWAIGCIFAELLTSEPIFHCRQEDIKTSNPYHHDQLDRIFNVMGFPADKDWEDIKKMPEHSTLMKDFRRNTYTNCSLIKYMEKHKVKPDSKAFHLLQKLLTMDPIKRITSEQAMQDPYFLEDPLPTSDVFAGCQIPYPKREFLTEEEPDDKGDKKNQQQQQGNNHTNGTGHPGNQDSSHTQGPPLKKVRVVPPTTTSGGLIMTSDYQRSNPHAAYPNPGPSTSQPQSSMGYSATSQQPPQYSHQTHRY
Sequence (P24863 whole entry partner): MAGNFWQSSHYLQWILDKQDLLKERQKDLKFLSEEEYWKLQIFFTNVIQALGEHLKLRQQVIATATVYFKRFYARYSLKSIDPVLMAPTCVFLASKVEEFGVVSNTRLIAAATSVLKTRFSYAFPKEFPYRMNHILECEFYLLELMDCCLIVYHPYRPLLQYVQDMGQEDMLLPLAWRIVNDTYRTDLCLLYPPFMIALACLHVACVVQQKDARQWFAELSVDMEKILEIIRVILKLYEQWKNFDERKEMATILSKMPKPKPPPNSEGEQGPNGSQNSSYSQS
Experiment: Surface plasmon resonance
RECORDED METRIC: Kd (nM)
Reply numerically in nM, unit not repeated.

input: I'd like to know its Kd. The compound in question is "Cn1cc(-c2ccc(-c3cncc(Cl)c3N3CCC4(CCNC4=O)CC3)cc2)cn1"
output: 2
